Measured protein stability index by item
# Tested on: Saccharomyces cerevisiae
# Procedure details: protein stability index of tFT-peptide fusion (C-terminal peptide) (PSI (0-1 scale)); higher = more stable (slower turnover);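 also: PSI is a weighted mean of sequencing reads over stability bins, variants kept only with over 10 reads, mCherry proximal and sfGFP distal, peptide attached via GGGS linker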
# Condition parameters: genetic background: wild type; temperature: 30 C

Sequence | protein stability index
DVELTGCCLSRT | 0.696
SCGWRGGWWVMG | 0.691
PVHHLSLPSPLL | 0.732
FTRFWTKANDPT | 0.691
TSFNQCRVFCRT | 0.614
YVGLAAGEVGMG | 0.661
LFTSGNSLVLVH | 0.365
EHFGFYFIFNLY | 0.58
PSLNPRVSFVNL | 0.685
SSQRPRCTFVLL | 0.684
IWGLDGKSISID | 0.751
EKYSSHPMDTRQ | 0.653
YAIINISRESLD | 0.717
CFLLSSFSLPRS | 0.705
QHFSSPQPVPYS | 0.696
VRAGFRAWGVSE | 0.572
IKFVRLEGLCPL | 0.624
PPPPPPPPCGTP | 0.633
VFVPARGAFHGL | 0.69
MQLTRKEEKSQE | 0.658
IPIPLLPASSPP | 0.688
SVAAGCGHGGGG | 0.657
IFWLFLPSVPFL | 0.702
YSPVPPPTRPPL | 0.707
SPGVFQQRHHTY | 0.665
VVVHFVLVCSTS | 0.289
PSPPPPPSPSPP | 0.626
KKTKNKKRIIRT | 0.724
SVNWVWNSVFDR | 0.683
CMIACYALLRLL | 0.11

###

# Tested on: Saccharomyces cerevisiae
# Procedure details: protein stability index of tFT-peptide fusion (C-terminal peptide) (PSI (0-1 scale)); higher = more stable (slower turnover)
# Condition parameters: genetic background: wild type; temperature: 30 C

Sequence | protein stability index
KRMKNELDIGMK | 0.705
PPAVRRPRRGGN | 0.699
FCALWASFFGVS | 0.715
TRTGSTPRGSTR | 0.684
RGDHPAAGFPCG | 0.686
SRRAPPPLYLPL | 0.699
GGGGGLVGGCVA | 0.696
DPVLPSVRVSLG | 0.715
LPAPPPPPRPLA | 0.683
PHSASSVSYTLY | 0.701
PPPPPRAPPLPP | 0.679
PPPPHRSHLPHS | 0.697
TGRAPGSDVLAS | 0.714
STPSLPPPPPSS | 0.681
GRGSCVRISSEG | 0.706
LAPALSHSPPLT | 0.715

###

Measured protein stability index by item
# Test system: Saccharomyces cerevisiae
# Procedure details: protein stability index of tFT-peptide fusion (C-terminal peptide) (PSI (0-1 scale)); higher = more stable (slower turnover)
# Condition parameters: genetic background: wild type; temperature: 30 C
Quantity name: protein stability index

Sequence | Quantity name | Meas value
FSVLLLANFCFF | protein stability index | 0.407
TKGIIKKINIIM | protein stability index | 0.206
SFLCGCVVCWLW | protein stability index | 0.396
WCFGSLLIRFSL | protein stability index | 0.411
FPCIFFFCLFIL | protein stability index | 0.203

###

# Tested on: Saccharomyces cerevisiae
# Procedure details: protein stability index of tFT-peptide fusion (C-terminal peptide) (PSI (0-1 scale)); higher = more stable (slower turnover)
# Condition parameters: genetic background: cdc34-1; temperature: 37 C
Quantity name: protein stability index

Sequence | Meas value
LGGCVSYINLLA | 0.592
WSISFGLLVCWV | 0.27
NAPSAIQKNKKC | 0.696
LRNVPCLVFFWV | 0.566
